- Tested on: F1*sub RNA substrate (template-directed ligation)
- protocol_notes: fraction ligated after 30 min (ligated reads / total reads); higher = more ligase activity; sequences stand for … in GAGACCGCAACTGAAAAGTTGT…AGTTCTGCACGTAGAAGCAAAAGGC
- run_conditions: 42 °C
measure_name: fraction ligated
Give bare numbers.

Provide fraction ligated for all items below, preserving their order.
1. TATACTTGTCGTGACACTTTGGATGGGTTGA [3d870]
2. ATCACTTTCGAAGACACTTTGGATGGGTTGA [3d126]
3. TATCCTTGTGTAAGACACTTTGGATGGGTTA [3d1013]
4. TTCCTGTCGTAAGACACTTTGGATGGGTTGA [3d298]
5. ATCATTGTCGAAGACACTTTGGATGGGTTGA [3d91]
6. TTCACTTTCTAAGACACTTTGGATGGGTTGA [3d356]

1: 0.708; 2: 0.698; 3: 0.406; 4: 0.746; 5: 0.728; 6: 0.36
